# protocol: COS7 lysate on small-molecule microarray, probe aHis, 635 nm (AID 1123);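 further: z-score combines 667nm fluorescence intensity with signal-to-noise per printed compound spot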
# test.parameters: COS7 cell lysate, fluorescence, higher = more signal
Consider the following compounds and their measured composite z-score readings.
When you answer, write just the number.

A selection of reference data follows.
Return reported composite z-score; argument: COc1ccc(CCNC(=O)[C@@]2(C)c3ccccc3C(=O)N(C(C)C)[C@H]2c2ccc(CO)cc2)cc1
0.216

Now try COc1ccc(C#Cc2ccc3c(c2)[C@]2(C(=O)N3)[C@H](C(=O)NC[C@H](O)c3ccccc3)[C@H]3C(=O)O[C@H](c4ccccc4)[C@H](c4ccccc4)N3[C@@H]2c2ccc(O)cc2)cc1 .
2.46

Now try COC(=O)[C@]1(CCC(=O)OC(C)(C)C)N=C(c2ccc(OCCCO)cc2)O[C@@H]1c1ccccc1CN=[N+]=[N-] .
1.72

Others:
Return reported composite z-score; argument: C=C(/C(=C/C[C@H](OC(C)=O)c1ccc(CO)o1)c1cc(C(=O)OC)ccc1OC)C(C)C
0.356

Now try CCC[C@@H]1C[C@@]1(CCC)[C@@H](NC(=O)c1ccccc1)c1cccc(Cl)c1 .
2.63

Now try CC(=O)NCCCC[C@@H]1NC(=O)[C@@H]2C[C@H](C(=O)NCCCCCNC(=O)CS)[C@H](c3cccc(OCCO)c3)N2C1=O .
-0.0704

Now try C[C@H]1C2[C@H](Cc3ccccc3)NC(=O)[C@]23C(=O)N[C@H](Cc2ccccc2)C(=O)N2CCC[C@H]2C(=O)NC/C=C\C/C=C/C3[C@@H]2O[C@]12C (stereo not given in full) .
-0.0175

Now try COC(=O)C(CC#Cc1ccc2c(c1)[C@]1(C(=O)N2)[C@H](c2ccc(OCCO)cc2)N2[C@H](c3ccccc3)[C@H](c3ccccc3)OC(=O)[C@H]2[C@@H]1C(=O)Nc1nc2ccccc2s1)C(=O)OC .
2.4

Now try CC(C)C(=C=CC[C@H](O)c1ccc(OCCO)cc1)CCO .
1.83

Now try CC(C)N1C(=O)C[C@@](C(=O)NCC(F)(F)F)(c2ccc([N+](=O)[O-])cc2)[C@H]1c1ccc(CO)cc1 .
1.22

Now try C=C[C@H](C)[C@@H](OC(=O)Nc1ccc(OC)cc1)c1ccc(O)c2ccccc12 .
0.832

Now try CCN(CC)c1ccc(N2CC=CC34O[C@@H]5C=CCCOC(=O)C5[C@H]3C(=O)N(CCCCCCO)[C@@H]4C2=O)cc1 (stereo not given in full) .
2.79

Now try O=C(NC1CC1)[C@@H]1c2ccccc2C(=O)N(Cc2ccccc2Cl)[C@H]1c1ccc(CO)cc1 .
2.33

* * *

# experimental.target: NADPH oxidase 4 (Homo sapiens) (UniProt Q9NPH5)
# Sequence (Q9NPH5 whole entry, looked up): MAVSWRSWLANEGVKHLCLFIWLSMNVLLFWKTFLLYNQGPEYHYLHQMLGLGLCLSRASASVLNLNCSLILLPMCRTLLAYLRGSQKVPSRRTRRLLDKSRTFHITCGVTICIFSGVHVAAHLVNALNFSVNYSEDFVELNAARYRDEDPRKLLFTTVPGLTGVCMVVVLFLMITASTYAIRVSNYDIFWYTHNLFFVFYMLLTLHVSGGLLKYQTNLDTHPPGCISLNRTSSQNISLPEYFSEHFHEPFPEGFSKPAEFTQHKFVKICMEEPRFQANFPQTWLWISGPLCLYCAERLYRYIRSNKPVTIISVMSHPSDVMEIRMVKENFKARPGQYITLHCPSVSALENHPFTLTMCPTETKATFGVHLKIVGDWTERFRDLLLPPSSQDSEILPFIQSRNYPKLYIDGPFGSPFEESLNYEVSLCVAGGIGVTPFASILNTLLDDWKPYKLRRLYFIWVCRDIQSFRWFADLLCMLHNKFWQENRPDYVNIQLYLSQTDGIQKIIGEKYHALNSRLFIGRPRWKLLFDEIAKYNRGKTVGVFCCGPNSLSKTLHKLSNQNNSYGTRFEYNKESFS
# protocol: NOX4-dependent H2O2 signal modulators, primary screen, NOX inhibitor project, cell-based, HEK293-NOX4, tetracycline-induced, Amplex Red fluorescence (AID 1160)
# test.parameters: 45 min, higher = more signal, called active from +8 up or from −8 down
Kindly return True if reported z-score is no lower than -0.4; return False if it is lower.

These recorded examples may help you get a feel for the data.
Could you verify whether the entry COc1cc(C(O)C2C=CC3C(=O)NC(=O)C3N2Nc2ccccn2)cc(OC)c1OC (stereo unspecified) shows z-score of no less than -0.4?
False

Now try COc1cc2c(cc1O)C(C1CC1)N(Cc1sc3ccccc3c1Cl)CC2 (stereo unspecified) .
False

Now try COCCOC(=O)N1C(=O)[C@@]2(c3cc(C#Cc4ccc(OC)cc4)ccc31)[C@H](c1ccccc1OCCO)N1[C@H](c3ccccc3)[C@H](c3ccccc3)OC(=O)[C@H]1[C@@H]2C(=O)NC[C@H](O)c1ccccc1 .
True

Now try [N-]=[N+]=NCc1ccccc1[C@@H]1OC(c2ccc(OCCCO)cc2)=N[C@]1(Cc1ccccc1)C(N)=O .
True

Now try NCCCCCCNC(=O)[C@@H]1C[C@@H]2C(=O)NCC(=O)N2[C@@H]1c1ccc(O)cc1 .
True

Now try CC(C)CNC(=O)[C@@]1(Cc2ccccc2I)c2ccccc2C(=O)N(C2CCCCC2)[C@H]1c1ccc(CO)cc1 .
True

Now try COc1ccc(/C=C/C=O)cc1 .
True

Now try C=C(COC)/C(=C/C[C@H](OC(C)=O)c1ccc(CO)o1)c1cc(C(=O)OC)ccc1OC .
False

Now try COCCOC(=O)N1C(=O)[C@@]2(c3ccccc31)[C@H](C(=O)N1CCc3cc(OC)c(OC)cc3C1)[C@H]1C(=O)O[C@H](c3ccccc3)[C@H](c3ccccc3)N1[C@@H]2c1ccc(OCCO)cc1 .
True

Now try COc1cc(Br)cc(C(O)C2C=CC3C(=O)N(C)C(=O)C3N2N2CCCCC2)c1OC (stereo unspecified) .
False

Others:
Could you verify whether the entry O=C(NCCN1CCOCC1)[C@@H]1c2ccccc2C(=O)N(C2CCCCC2)[C@H]1c1ccc(CO)cc1 shows z-score of no less than -0.4?
True

Now try [N-]=[N+]=Nc1ccccc1[C@H]1OC(c2ccc(OCCCO)cc2)=N[C@@]1(CCS(=O)(=O)c1ccccc1)C(N)=O .
True

Now try O=C1NC(=O)C2C1C=CC(C(O)c1cccs1)N2Nc1ccc(Cl)cc1Cl (stereo unspecified) .
False

Now try C=C(C)[C@@H]1CC=C(C(O)C2C=CC3C(=O)N(c4ccccc4)C(=O)C3N2Nc2ccccc2)CC1 (stereo partly specified) .
False

Now try CC(C)OC(=O)C=C1C[C@@H](c2ccccn2)O[C@@H](c2ccccn2)O1 .
False

Now try O=C1C[C@@](C(=O)NCCN2CCOCC2)(c2ccc([N+](=O)[O-])cc2)[C@@H](c2ccc(CO)cc2I)N1CC12CC3CC(CC(C3)C1)C2 .
False

* * *

# protocol: inhibitors of hydroxyurea-induced Chk1 phosphorylation, primary screen, imaging, HeLa, phospho-Chk1 nuclear intensity (AID 1187); further: test concentration not given here
# test.parameters: hydroxyurea-induced phospho-Chk1 immunofluorescence imaging, higher = more signal
Consider the following molecules and their measured z-score readings.
When you answer, write just the number.

Return reported z-score; argument: C=CCNC(=O)[C@@H]1[C@H]2C(=O)O[C@H](c3ccccc3)[C@H](c3ccccc3)N2[C@H](c2ccccc2OCCO)[C@@]12C(=O)N(C(=O)OCCOC)c1ccccc12
0.494

Now try C=CCC(OC(C)=O)[C@@H]1[C@@H](N(Cc2ccc(-c3ccccc3)cc2)C(=O)Cc2ccc(OC)cc2)c2cc(OCCCO)ccc2N1C(=O)Cc1ccc2ccccc2c1 (stereo partly drawn) .
0.325

Field: next molecule
Return reported z-score; argument: C=C(COC)/C(=C/C[C@@H](OC(=O)c1ccncc1)c1ccc(CO)o1)c1cc(C(=O)OC)ccc1OC
-0.162

* * *

# experimental.target: Torsin-1A (Homo sapiens)
# protocol: torsin A binders from cell lysate, primary screen, small-molecule microarray, wild-type, 635/667 nm (AID 1149)
# test.parameters: COS7 hTOR1A-WT lysate, 635 nm fluorescence, higher = more signal
Consider the following compounds and their measured composite z-score readings.
When you answer, write just the number.

A selection of reference data follows.
Return reported composite z-score; argument: COCCOC(=O)N1C(=O)[C@@]2(c3cc(C#Cc4ccc(OC)cc4)ccc31)[C@H](c1ccc(O)cc1)N1[C@H](c3ccccc3)[C@H](c3ccccc3)OC(=O)[C@H]1[C@@H]2C(=O)N1CCc2cc(OC)c(OC)cc2C1
0.807

Now try O=C1C[C@@](C(=O)NCCN2CCOCC2)(c2ccc([N+](=O)[O-])cc2)[C@@H](c2ccc(CO)cc2I)N1CC12CC3CC(CC(C3)C1)C2 .
0.97

Now try CN1C(=O)C2C=CC(C(O)c3ccco3)N(Nc3ccccc3)C2C1=O (stereo unspecified) .
0.336

Now try C[C@H]1NC(=O)[C@@]23C(=O)N[C@@H](Cc4ccccc4)C2[C@H](C)[C@@]2(C)O[C@H]2C3/C=C/C/C=C\CNC(=O)[C@@H]2CCCN2C1=O (stereo partly specified) .
0.396

Now try CO[C@H]1O[C@H](CO)[C@@H](OC(=O)Nc2ccc(Oc3ccccc3)cc2)[C@H](OC(=O)Nc2ccc3c(c2)OCO3)[C@H]1OC(=O)Nc1ccc2c(c1)OCO2 .
0.387

Field: next compound
Return reported composite z-score; argument: COCCOC(=O)N1C(=O)[C@@]2(c3cc(C#CCC(C(=O)OC)C(=O)OC)ccc31)[C@H](C(=O)Nc1nc3ccccc3s1)[C@H]1C(=O)O[C@H](c3ccccc3)[C@H](c3ccccc3)N1[C@@H]2c1ccccc1OCCO
0.776

* * *

Consider the following molecules and their measured z-score readings.
# protocol: HepG2 liver cancer cell viability effects, profiling panel, resazurin fluorescence, 24 h, PK04 Diversity Set (AID 1172); further: test concentration not given here
# test.parameters: higher = more signal
When you answer, write just the number.

A selection of reference data follows.
Return reported z-score; argument: O=C1C[C@@](C(=O)NCCN2CCOCC2)(c2ccc([N+](=O)[O-])cc2)[C@@H](c2ccc(CO)cc2)N1CC12CC3CC(CC(C3)C1)C2
-2.48

Now try C=CCNC(=O)[C@@H]1[C@H]2C(=O)O[C@H](c3ccccc3)[C@H](c3ccccc3)N2[C@H](c2ccc(OCCO)cc2)[C@@]12C(=O)Nc1ccc(C#CCC(C(=O)OC)C(=O)OC)cc12 .
0.874

Now try COc1ccc(C#Cc2ccc3c(c2)[C@]2(C(=O)N3)[C@H](c3ccccc3OCCO)N3[C@H](c4ccccc4)[C@H](c4ccccc4)OC(=O)[C@H]3[C@@H]2C(=O)Nc2nc3ccccc3s2)cc1 .
-0.927

Others:
Return reported z-score; argument: C[C@@]1([C@@H](NC(=O)c2ccc(-c3ccccc3)cc2)c2ccc(Cl)cc2)C[C@H]1C1CCCCC1
-0.953

Now try CC(C)C(O)C1C=CC2C(=O)N(c3ccccc3)C(=O)C2N1Nc1ccc([N+](=O)[O-])cc1 (centres undefined) .
-0.283

Now try COc1ccc(CCNC(=O)[C@@H]2c3ccccc3C(=O)N(Cc3ccccc3Cl)[C@H]2c2ccc(CO)cc2)cc1 .
0.891

Now try CCS[C@H]1[C@@H](C(=O)O)[C@H](c2ccc(C)cc2)N(S(=O)(=O)c2ccc(C)cc2)[C@@H]1CC .
0

Now try CN(C)CCCC[C@@H]1NC(=O)[C@H]2C[C@@H](C(=O)NCCCCCCN)[C@@H](c3ccc(O)cc3)N2C1=O .
-0.24
